What follows is a record of pIC50 for CDK2/cyclin A (Homo sapiens).
Give bare numbers, as −log10 of the molar value.

Some solved entries appear below for comparison.
molecule	pIC50
C/C(=N\NC(N)=S)c1ccccn1 [1a]	4.78
CC(=O)C1S/C(=N/N=C(\C)c2ccccn2)NC1=O (stereo not drawn) [8a]	5.61

Now look at this one.
Find the recorded pIC50 belonging to C/C(=N\N=c1/[nH]c(C)c(/N=N/c2ccc(C)cc2)s1)c1ccccn1 [13a] and report it.
5.95

* * *

Consider the following compounds; for each one, report its IC50.
system_name: GSK3β (Homo sapiens)
Sequence (P49841 whole entry): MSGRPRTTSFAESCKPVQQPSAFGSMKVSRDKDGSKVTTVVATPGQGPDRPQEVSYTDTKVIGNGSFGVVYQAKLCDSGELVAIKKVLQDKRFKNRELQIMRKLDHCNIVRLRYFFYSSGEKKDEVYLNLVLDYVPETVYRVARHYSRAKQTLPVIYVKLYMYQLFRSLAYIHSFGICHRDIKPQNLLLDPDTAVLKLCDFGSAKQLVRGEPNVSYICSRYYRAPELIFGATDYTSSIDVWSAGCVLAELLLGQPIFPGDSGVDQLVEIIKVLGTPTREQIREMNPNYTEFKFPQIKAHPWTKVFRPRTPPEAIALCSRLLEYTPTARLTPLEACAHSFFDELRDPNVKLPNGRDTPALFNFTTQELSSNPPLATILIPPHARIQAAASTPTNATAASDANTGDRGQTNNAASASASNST
One number for each entry, in nM.

compound	IC50, nM
C/C(=N\NC(N)=S)c1ccccn1	2250

Below is a list of compounds. For each, state its recorded IC50.
1. C/C(=N\N=c1/[nH]c(C)c(/N=N/c2ccc(C)cc2)s1)c1ccccn1 [13a]
2. CC(=O)C1S/C(=N/N=C(\C)c2ccccn2)NC1=O (stereo not drawn)

337
485

Where these numbers come from: paper PMC11456921
